# Test system: BDF1 mice, B16 melanoma ip, median survival T/C
# PROTOCOL NOTES: NCI In Vivo Anticancer Drug Screen. Data for tumor model B16 Melanoma (intraperitoneal) in B6D2F1 (BDF1) mice
# MEASUREMENT CONDITIONS: endpoint: median survival time; dose: 10.0 mg/kg/injection; schedule: Q01DX009 (ip); vehicle: Klucel (hydroxypropylcellulose) (HPC); higher = longer survival
Inconclusive results and toxic doses are left out.
Reported T/C values follow for various molecules

[ask] Query T/C on BDF1 mice, B16 melanoma ip, median survival T/C for CC1(C)OCC(C2CCC3(C)C4=CCC5C(C)(C)C(O)CCC5(C)C4CCC23C)CC(O)C1O (stereo not given)
[reply] 102 % of control

[ask] Then `COc1cc2c(c(OC)c1OC)-c1cc3c(cc1[C@@H](OC(C)=O)[C@@H]1COC(=O)[C@H]1C2)OCO3` ?
[reply] 102 % of control

[ask] Param item: N#CCCC1C2CCC(C2)C1C#N (stereo not given)
[reply] 95 % of control

[ask] Then CC1OC(n2ccc(NC(=O)c3ccc(NC(=O)C(C)(N)CO)cc3)nc2=O)CC(O)C1OC1OC(C)C(N(C)C)C(O)C1O (stereo not given) ?
[reply] 103 % of control

[ask] And the next one, `COC(=O)c1c(C)cc(OC(=O)c2c(C)c(Cl)c(O)c(Cl)c2O)cc1O` ?
[reply] 94 % of control

* * *

Quick list: T/C per entry.
# Test system: BDF1 mice, B16 melanoma ip, median survival T/C
# PROTOCOL NOTES: NCI In Vivo Anticancer Drug Screen. Data for tumor model B16 Melanoma (intraperitoneal) in B6D2F1 (BDF1) mice
# MEASUREMENT CONDITIONS: endpoint: median survival time; dose: 12.5 mg/kg/injection; schedule: Q01DX009 (ip); vehicle: saline with Tween-80; higher = longer survival
Inconclusive results and toxic doses are left out.

Worked cases, T/C given:
# COMPOUND, VALUE KIND, RESULT
data = [
    ("CC(C)(CN=Cc1ccccc1[O-])N=Cc1ccccc1[O-].[O]=[V]", "T/C", "95 % of control"),
    ("CCCCOC(=O)c1ccc(NC(=O)Nc2ccccc2OC)cc1", "T/C", "93 % of control"),
    ("C[n+]1ccc(Nc2ccc(NC(=O)c3ccc(Nc4cc[n+](C)c5ccc([N+](=O)[O-])cc45)cc3[N+](=O)[O-])cc2)cc1", "T/C", "95 % of control"),
    ("C/C(=N\\NC(N)=O)c1cccc(/C(C)=N/NC(N)=O)n1", "T/C", "96 % of control"),
    ("CC(C)(C)c1cc([N+](=O)[O-])cc([N+](=O)[O-])c1O", "T/C", "89 % of control"),
]

[ask] Tell me the measured T/C of `Cc1ccc(NC(=O)Nc2cccc(Cl)c2C)cc1NC(=O)Nc1cccc(Cl)c1C` , please.
[reply] 86 % of control

* * *

# Tested on: BDF1 mice, B16 melanoma ip, median survival T/C
# PROTOCOL NOTES: NCI In Vivo Anticancer Drug Screen. Data for tumor model B16 Melanoma (intraperitoneal) in B6D2F1 (BDF1) mice
# MEASUREMENT CONDITIONS: endpoint: median survival time; dose: 25.0 mg/kg/injection; schedule: Q04DX003 (ip); vehicle: Klucel (hydroxypropylcellulose) (HPC); higher = longer survival
Toxic doses and inconclusive results are not listed.
Reported T/C values follow for various compounds

# COMPOUND, T/C
records = [
    ("C/C=C(\\CC)C(=O)NC(N)=O", "100 % of control"),
    ("COC(=O)[CH](C[N+](=O)[O-])[Hg][Cl] (stereo not drawn)", "92 % of control"),
    ("CCc1ccc(C(C)(C)C)cc1", "103 % of control"),
    ("C#CCC1(OC(N)=O)CCCCC1", "97 % of control"),
    ("c1ccc(C(=C2CCC2)c2c3ccccc3cc3ccccc23)cc1", "102 % of control"),
]

[ask] Can you share its T/C? I mean this compound: `c1ccc2c(c1)OCCOCCOc1ccccc1OCCOCCO2`
[reply] 88 % of control

[ask] Now consider `Cc1ccc(S(=O)(=O)N2CCCC(Br)(Br)C(=O)c3ccccc32)cc1` .
[reply] 95 % of control

[ask] What do we get for `Nc1ccc(S(=O)(=O)CCCl)cc1` ?
[reply] 105 % of control

* * *

# System: BDF1 mice, B16 melanoma ip, median survival T/C
# PROTOCOL NOTES: NCI In Vivo Anticancer Drug Screen. Data for tumor model B16 Melanoma (intraperitoneal) in B6D2F1 (BDF1) mice
# MEASUREMENT CONDITIONS: endpoint: median survival time; dose: 150.0 mg/kg/injection; schedule: Q01DX009 (ip); vehicle: Klucel (hydroxypropylcellulose) (HPC); higher = longer survival
# Description: The antitumor activity of compounds was measured in mice bearing transplantable tumors. Survival or tumor size were measured and the results are expressed as the measurement made in the treated group (T) divided by the measurement made in the vehicle treated control group (C). The tumor model used in this assay is B16 Melanoma (intraperitoneal) in B6D2F1 (BDF1) mice
Inconclusive results and toxic doses are left out.
VALUE KIND: T/C

# COMPOUND, T/C
measured = [
    ("CCC(C)Sc1nc(N)nc2c1ncn2C1OC(CO)C(O)C1O (stereo unspecified)", "89 % of control"),
    ("Cc1cccc(C2CCCC2c2ccccc2)c1 (stereo unspecified)", "97 % of control"),
    ("CC1(C)N=C(N)N=C(N)N1c1cccc(CC(=O)Nc2ccc(S(=O)(=O)F)cc2)c1", "109 % of control"),
    ("Cc1ncc([N+](=O)[O-])n1CCO", "102 % of control"),
    ("O=C(Nc1cccc(Cl)c1)OCC(Cl)(Cl)Cl", "103 % of control"),
]

[ask] Given the compound `Cc1c(Cl)cccc1NC(=O)c1ccc(Cl)cc1` , what is its reported T/C?
[reply] 90 % of control

* * *

Measured T/C accompanies every entry in the list below.
# Test system: BDF1 mice, B16 melanoma ip, median survival T/C
# PROTOCOL NOTES: NCI In Vivo Anticancer Drug Screen. Data for tumor model B16 Melanoma (intraperitoneal) in B6D2F1 (BDF1) mice
# MEASUREMENT CONDITIONS: endpoint: median survival time; dose: 100.0 mg/kg/injection; schedule: Q01DX009 (ip); vehicle: carboxymethylcellulose (CMC); higher = longer survival
Toxic doses and inconclusive results are not listed.

A selection of reference data follows.
# MOL SMILES, STUDY TARGET, RESULT
measured = [
    ("CC1=C2C(=O)c3ccccc3C2=C(C)S(=O)(=O)O1", "BDF1 mice, B16 melanoma ip, median survival T/C", "87 % of control"),
    ("CCC(CC)c1ccccn1", "BDF1 mice, B16 melanoma ip, median survival T/C", "101 % of control"),
    ("CCC(=S)Nc1ccc(Cl)cc1", "BDF1 mice, B16 melanoma ip, median survival T/C", "103 % of control"),
]

Please look at the following compound next.
[ask] Which T/C reading was recorded for the compound `COc1cc(/C=C(/C)[N+](=O)[O-])ccc1O` ?
[reply] 102 % of control

* * *

# Tested on: BDF1 mice, B16 melanoma ip, median survival T/C
# PROTOCOL NOTES: NCI In Vivo Anticancer Drug Screen. Data for tumor model B16 Melanoma (intraperitoneal) in B6D2F1 (BDF1) mice
# MEASUREMENT CONDITIONS: endpoint: median survival time; dose: 12.5 mg/kg/injection; schedule: Q01DX009 (ip); vehicle: saline; higher = longer survival
Toxic doses and inconclusive results are not listed.
VALUE KIND: T/C

# MOLECULE, T/C
data = [
    ("O=C(O)C(CSC(c1ccccc1)(c1ccccc1)c1ccccc1)N=Cc1cccs1 (configuration not stated)", "117 % of control"),
    ("CC(N)Cc1ccc(O)cc1 (configuration not stated)", "102 % of control"),
    ("COc1ccc(Oc2cc(CC3c4cc(OC)c(OC)cc4CCN3C)c([N+](=O)[O-])cc2OC)cc1OC (configuration not stated)", "100 % of control"),
    ("CNCCOC(c1ccccc1)c1ccccc1C (configuration not stated)", "102 % of control"),
    ("CC1(C)COCN1COCCOCN1COCC1(C)C", "103 % of control"),
]

[ask] # query: T/C of entry `COc1ccc2c(=O)cc(-c3ccccc3)[nH]c2c1`
[reply] 114 % of control

[ask] Next entry: `CN1CCC=C(CN2c3ccccc3Sc3ccc(Cl)cc32)C1`
[reply] 95 % of control

[ask] Thanks! And `CCCCCCCCCCCCCCCCP(=O)(OCCOCCCCCC)OCCOCCCCCC` ?
[reply] 109 % of control

[ask] Proceed to CC(C)NC1C2CCC(CC2)C1(O)c1ccc(Cl)c(Cl)c1 (configuration not stated)
[reply] 102 % of control

[ask] Same lookup for `O=C1C(=O)c2ccccc2C(O)=C1CC=C(Cl)Cl` , please.
[reply] 100 % of control

[ask] Okay, and `CCN1C(=O)CC2(CCN(C)CC2)C1=O` ?
[reply] 108 % of control
